Each recorded value in this set is attributed to patent US8158605B2.

Tested on: K562
Assay: WST-1 cytotoxicity assay
Format: cell-based
Conditions: Homo sapiens; K562, 72 hour treatment
readout.type: IC50 (µM)
Answer with a number only, understood to be in µM.

input: Can you look up the measured IC50 of Nc1ncn([C@@H]2O[C@H](CO)[C@@H](O)[C@H]2O)c(=O)n1 [5-AzaC, 5-azacytidine, reference compound] for me?
output: 5.83

====

System: K562
Assay: WST-1 cytotoxicity assay
Format: cell-based
Details: Homo sapiens; K562, 48 hour treatment
readout.type: IC50
# number then unit; no other words

# molecule, IC50
records = [
    ("CCCCCCCC/C=C/CCCCCCCC(=O)OC[C@H]1O[C@@H](n2cnc(N)nc2=O)[C@H](O)[C@@H]1O [CP, 5-azacytidine 5′-elaidate]", "0.92 µM"),
]

input: Can you look up the measured IC50 of Nc1ncn([C@@H]2O[C@H](CO)[C@@H](O)[C@H]2O)c(=O)n1 [5-AzaC, 5-azacytidine, reference compound] for me?
output: 15.5 µM

====

# Lookup of reported IC50 keyed by entry
Tested on: HL60
Experiment: WST-1 cytotoxicity assay
Assay type: cell-based
Conditions: Homo sapiens, HL-60; HL60, 48 hour treatment
Experimental: Human promyelocytic leukemia cell lines HL60, human histiocytic lymphoma U937, human chronic myelogenous leukemia K562, human acute T cell Jurkat, breast adenocarcinoma MCF-7, urinary bladder carcinoma 5637, prostate carcinoma DU-145 were purchased from American Type Culture Collection. […] MCF-7, DU-145, and 5637 cells (1×10^4/ml) were plated and allowed to adhere and spread for 24 hours. […] Growth inhibition was determined as compared to untreated cells (%). […]
Answer with a number only, understood to be in µM.

# compound, IC50 [µM]
data = [
    ("Nc1ncn([C@@H]2O[C@H](CO)[C@@H](O)[C@H]2O)c(=O)n1 [5-AzaC, 5-azacytidine, reference compound]", 4.92),
]

Read the next record carefully.
input: Can you look up the measured IC50 of CCCCCCCC/C=C/CCCCCCCC(=O)OC[C@H]1O[C@@H](n2cnc(N)nc2=O)[C@H](O)[C@@H]1O [CP, 5-azacytidine 5′-elaidate] for me?
output: 3.6

====

Tested on: DU145
Experiment: WST-1 cytotoxicity assay
Format: cell-based
Details: Homo sapiens, DU-145; DU145, 24 hour treatment
# Lookup of reported pIC50 keyed by entry
Scale: pIC50 equals -log10([C]), with [C] in mol/L.

# compound, pIC50
records = [
    ("CCCCCCCC/C=C/CCCCCCCC(=O)OC[C@H]1O[C@@H](n2cnc(N)nc2=O)[C@H](O)[C@@H]1O [CP, 5-azacytidine 5′-elaidate]", 5.17),
]

input: Can you look up the measured pIC50 of Nc1ncn([C@@H]2O[C@H](CO)[C@@H](O)[C@H]2O)c(=O)n1 [5-AzaC, 5-azacytidine, reference compound] for me?
output: 4.68

====

System: Hela cervix carcinoma cells
Assay: MTT cytotoxicity with or without nucleoside transport inhibitor dipyridamole
Assay type: cell-based
Settings: Homo sapiens, HeLa, 72 h, MTT, without dipyridamole
readout.type: pIC50
Scale: pIC50 equals -log10([C]), with [C] in mol/L.

input: Can you look up the measured pIC50 of Nc1ncn([C@@H]2O[C@H](CO)[C@@H](O)[C@H]2O)c(=O)n1 [5-AzaC, 5-azacytidine, reference compound] for me?
output: 5.36
